List of Papp at 90 min, 20 μM values.
- assay.details: Transport experiment in the in vitro BBB cell model
- Format: in vitro ADME
- details: Sprague-Dawley, rat, C0 20 μM, apical to basolateral, mean ± SD (n = 3-4), read-out: Papp × 10^−6
measured.quantity: Papp at 90 min, 20 μM (×10⁻⁶ cm/s)

molecule	measured.quantity	endpoint.unit	measurement
COc1cc(C(=O)CNc2ccc(F)cc2)ccc1O	Papp at 90 min, 20 μM	×10⁻⁶ cm/s	4.24
COc1cc(C(=O)CNc2ccccc2)ccc1O	Papp at 90 min, 20 μM	×10⁻⁶ cm/s	5.41
Cn1nnc2c(C(N)=O)ncn2c1=O [TMZ, Temozolomide, reference compound]	Papp at 90 min, 20 μM	×10⁻⁶ cm/s	7.74
COc1cc(C(=O)CSCc2ccccc2)ccc1O	Papp at 90 min, 20 μM	×10⁻⁶ cm/s	9.58
COc1cc(C(=O)CSCc2ccccc2Cl)ccc1O	Papp at 90 min, 20 μM	×10⁻⁶ cm/s	12
COc1cc(C(C)=O)ccc1O [Compound D1, 4-hydroxy-3-methoxyacetophenone, reference compound]	Papp at 90 min, 20 μM	×10⁻⁶ cm/s	4.95
COc1cc(NCC(=O)c2ccc(O)c(OC)c2)cc(OC)c1	Papp at 90 min, 20 μM	×10⁻⁶ cm/s	2.54
COc1cc(C(=O)CSCc2ccc(F)cc2)ccc1O	Papp at 90 min, 20 μM	×10⁻⁶ cm/s	11.9

----------
- assay.details: Transport experiment in the in vitro BBB cell model
- Assay type: in vitro ADME
- details: Sprague-Dawley, rat, C0 100 μM, apical to basolateral, mean ± SD (n = 3-4), read-out: Papp × 10^−6
List of Papp at 90 min, 100 μM values.

chem.smiles	Papp at 90 min, 100 μM / ×10⁻⁶ cm/s
COc1cc(C(=O)CNc2ccc(F)cc2)ccc1OCc1ccccc1	8.68
COc1cc(C(=O)CNc2ccc(F)cc2F)ccc1O	6.08
COc1cc(C(=O)CNc2ccccc2)ccc1OCc1ccccc1	10.3
COc1cc(C(=O)CNc2ccc(Cl)cc2)ccc1O	5.42
